For each record, write down the corresponding microsomal CLint at 1 μM.
# PROCEDURE TEXT: Metabolic stability in human liver microsomes (HLM)
# Type: in vitro ADME
# ASSAY SETUP: both sexes, human, pooled human liver microsomes, pH 7.4, 0.50 mg protein per mL
One number for each entry, in µL/min/mg.

Some compounds with known microsomal CLint at 1 μM results, for comparison:
{"columns": ["COMPOUND", "MEASURED PARAMETER", "UNIT ABBREV", "VALUE OBSERVED"],
 "data": [
  ["CCC(CC)NC(=O)[C@H]1C=C2c3cccc4[nH]cc(c34)C[C@H]2N(C)C1 [Int14a]", "microsomal CLint at 1 μM", "µL/min/mg", 414],
  ["CC[C@@H](C)NC(=O)[C@@H]1C=C2c3cccc4[nH]cc(c34)C[C@H]2N(CC)C1", "microsomal CLint at 1 μM", "µL/min/mg", 62.3],
  ["CCN(CC)C(=O)[C@@H]1C=C2c3cccc4[nH]cc(c34)C[C@H]2N(CCc2ccccc2OC)C1", "microsomal CLint at 1 μM", "µL/min/mg", 584],
  ["CCC[C@@H](C)NC(=O)[C@H]1C=C2c3cccc4[nH]cc(c34)C[C@H]2N(C)C1 [Int17a]", "microsomal CLint at 1 μM", "µL/min/mg", 303],
  ["CCC(CC)NC(=O)[C@@H]1C=C2c3cccc4[nH]c(Br)c(c34)C[C@H]2N(C)C1", "microsomal CLint at 1 μM", "µL/min/mg", 153]
]}

Batch of 5 compounds: report microsomal CLint at 1 μM for each.
1. CCN(CC)C(=O)[C@@H]1C=C2c3cccc4[nH]cc(c34)C[C@H]2N(Cc2cccc(OC)c2)C1
2. CCN(CC)C(=O)[C@@H]1C=C2c3cccc4[nH]cc(c34)C[C@H]2N(Cc2ccc(OC)cc2)C1
3. C[C@H]1C[C@H](C)N1C(=O)[C@@H]1C=C2c3cccc4[nH]cc(c34)C[C@H]2N(CCCF)C1
4. CCN(CC)C(=O)[C@@H]1C=C2c3cccc4[nH]cc(c34)C[C@H]2N(CC2CC2)C1
5. CCN(CC)C(=O)[C@@H]1C=C2c3cccc4[nH]cc(c34)C[C@H]2N(CCc2cccc(OC)c2)C1

// result
[102, 82.7, 67.7, 65.7, 649]

====

# STUDY SYSTEM: 5-HT2B receptor (Homo sapiens, UniProt P41595)
# Construct: host or cells: HEK293
# Sequence (P41595 whole entry): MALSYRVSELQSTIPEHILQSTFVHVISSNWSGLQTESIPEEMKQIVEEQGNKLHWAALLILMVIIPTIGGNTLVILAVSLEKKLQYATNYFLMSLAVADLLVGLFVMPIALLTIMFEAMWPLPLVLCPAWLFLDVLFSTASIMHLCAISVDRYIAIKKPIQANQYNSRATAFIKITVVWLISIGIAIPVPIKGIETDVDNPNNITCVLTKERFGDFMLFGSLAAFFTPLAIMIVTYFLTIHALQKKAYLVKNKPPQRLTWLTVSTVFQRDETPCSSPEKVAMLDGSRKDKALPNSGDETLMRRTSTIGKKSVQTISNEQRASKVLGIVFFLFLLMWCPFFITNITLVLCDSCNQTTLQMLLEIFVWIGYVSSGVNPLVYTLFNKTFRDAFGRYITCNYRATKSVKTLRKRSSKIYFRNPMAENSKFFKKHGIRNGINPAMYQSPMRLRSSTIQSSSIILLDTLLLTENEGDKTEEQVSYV
# PROCEDURE TEXT: cell-based
# ASSAY SETUP: Ca^2+ flux, agonist; read-out: 5-HT2B EC50
pEC50: −log10 of the molar value.
Tag: label 1 if measured pEC50 is not below 6, label 0 if it is.

{"columns": ["MOLECULE", "STUDY SYSTEM", "LABEL CLASS"],
 "data": [
  ["CCN(CC)C(=O)[C@@H]1C=C2c3cccc4[nH]cc(c34)C[C@H]2N(Cc2ccc(OC)cc2)C1", "5-HT2B receptor (Homo sapiens, UniProt P41595)", "label 0"]
]}

// query Record CN1C[C@H](C(=O)N(CCF)CCF)C=C2c3cccc4[nH]cc(c34)C[C@H]21 ; criterion: pEC50 no lower than 6. Met?
// result label 1

// query Record CCN(CC)C(=O)[C@@H]1C=C2c3cccc4[nH]cc(c34)C[C@H]2N(Cc2ccccc2OC)C1 ; criterion: pEC50 no lower than 6. Met?
// result label 0

// query Record CCC[C@@H](C)NC(=O)[C@H]1C=C2c3cccc4[nH]cc(c34)C[C@H]2N(C)C1 [Int17a] ; criterion: pEC50 no lower than 6. Met?
// result label 0

// query Record CCN(CC)C(=O)[C@@H]1C=C2c3cccc4[nH]cc(c34)C[C@H]2N(CCc2ccccn2)C1 ; criterion: pEC50 no lower than 6. Met?
// result label 0

// query Record CC[C@@H](C)NC(=O)[C@@H]1C=C2c3cccc4[nH]cc(c34)C[C@H]2N(CC)C1 ; criterion: pEC50 no lower than 6. Met?
// result label 1

====

# STUDY SYSTEM: 5-HT1A receptor (Homo sapiens, UniProt P08908)
# Construct: host or cells: CHO cells
# Sequence (P08908 whole entry): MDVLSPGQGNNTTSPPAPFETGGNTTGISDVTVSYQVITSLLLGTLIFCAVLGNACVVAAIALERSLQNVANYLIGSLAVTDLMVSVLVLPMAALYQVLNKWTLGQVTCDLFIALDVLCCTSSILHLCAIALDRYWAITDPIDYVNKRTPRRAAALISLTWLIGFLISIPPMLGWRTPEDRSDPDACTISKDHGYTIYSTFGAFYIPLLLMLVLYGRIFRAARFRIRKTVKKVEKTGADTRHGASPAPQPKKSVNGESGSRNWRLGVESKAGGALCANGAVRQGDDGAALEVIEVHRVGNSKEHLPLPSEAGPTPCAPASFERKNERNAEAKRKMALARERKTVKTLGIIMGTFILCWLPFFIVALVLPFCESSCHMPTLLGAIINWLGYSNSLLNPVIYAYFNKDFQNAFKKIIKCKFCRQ
# PROCEDURE TEXT: cell-based
# ASSAY SETUP: Ca^2+ flux, agonist
MEASURED PARAMETER: 5-HT1A % Act @ Max Dose (%)
Answers are plain numbers, in %.

{"columns": ["SMILES ENTRY", "UNIT ABBREV", "VALUE OBSERVED"],
 "data": [
  ["C=CCN1C[C@H](C(=O)N2[C@@H](C)C[C@@H]2C)C=C2c3cccc4[nH]cc(c34)C[C@H]21", "%", 90.8],
  ["CCN(CC)C(=O)[C@@H]1C=C2c3cccc4[nH]c(Br)c(c34)C[C@H]2N(CCC(F)(F)F)C1", "%", 9.13],
  ["CN1C[C@H](C(=O)N2CCCC2)C=C2c3cccc4[nH]cc(c34)C[C@H]21", "%", 103.7]
]}

// query Specify measured 5-HT1A % Act @ Max Dose for CCCN1C[C@H](C(=O)N2[C@@H](C)C[C@@H]2C)C=C2c3cccc4[nH]c(Br)c(c34)C[C@H]21 .
// result 62.15

====

# PROCEDURE TEXT: Metabolic stability in rat liver microsomes (RLM)
# ASSAY SETUP: both, rat, pooled rat liver microsomes, pH 7.4
For each record, write down the corresponding microsomal CLint at 1 μM.
Answers are plain numbers, in µL/min/mg.

Some compounds with known microsomal CLint at 1 μM results, for comparison:
{"columns": ["COMPOUND", "UNIT ABBREV", "microsomal CLint at 1 μM"],
 "data": [
  ["CCCN1C[C@H](C(=O)N[C@H](C)CC)C=C2c3cccc4[nH]cc(c34)C[C@H]21 [Compound 3]", "µL/min/mg", 318],
  ["CCC[C@@H](C)NC(=O)[C@H]1C=C2c3cccc4[nH]cc(c34)C[C@H]2N(C)C1 [Int17a]", "µL/min/mg", 707],
  ["CCN(CC)C(=O)[C@@H]1C=C2c3cccc4[nH]cc(c34)C[C@H]2N(CC2CC2)C1 [Compound 13]", "µL/min/mg", 50]
]}

// query Specify measured microsomal CLint at 1 μM for CCN(CC)C(=O)[C@@H]1C=C2c3cccc4[nH]cc(c34)C[C@H]2N(Cc2ccccc2OC)C1 [Compound 10] .
// result 407

====

# STUDY SYSTEM: 5-HT2A receptor (Homo sapiens, UniProt P28223)
# Construct: host or cells: HEK293
# Sequence (P28223 whole entry): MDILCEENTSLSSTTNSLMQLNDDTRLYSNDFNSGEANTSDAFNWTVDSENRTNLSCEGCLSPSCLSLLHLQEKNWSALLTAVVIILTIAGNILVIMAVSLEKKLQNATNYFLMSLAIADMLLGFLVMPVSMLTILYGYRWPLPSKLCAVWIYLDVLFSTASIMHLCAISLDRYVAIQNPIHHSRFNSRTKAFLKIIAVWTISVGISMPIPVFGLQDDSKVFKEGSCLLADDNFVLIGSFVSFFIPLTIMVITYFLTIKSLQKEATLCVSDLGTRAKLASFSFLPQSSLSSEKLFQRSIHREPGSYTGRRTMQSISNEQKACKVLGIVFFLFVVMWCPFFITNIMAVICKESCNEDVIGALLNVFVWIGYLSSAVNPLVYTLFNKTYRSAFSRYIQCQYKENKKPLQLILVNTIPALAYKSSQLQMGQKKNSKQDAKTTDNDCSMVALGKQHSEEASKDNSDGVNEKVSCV
# PROCEDURE TEXT: cell-based
# Assay type: cell-based
# ASSAY SETUP: Ca^2+ flux, agonist
MEASURED PARAMETER: 5-HT2A % Act @ Max Dose
Write the figure, then the unit, nothing else.

Some molecules with known 5-HT2A % Act @ Max Dose results, for comparison:
{"columns": ["MOLECULE", "5-HT2A % Act @ Max Dose"],
 "data": [
  ["CCCN1C[C@H](C(=O)N(CC)CC)C=C2c3cccc4[nH]c(Br)c(c34)C[C@H]21", "75.81%"],
  ["CCCN1C[C@H](C(=O)N(CC)CC)C=C2c3cccc4c3C(CN4)C[C@H]21 (mixture of isomers)", "77.54%"],
  ["CC[C@@H](C)NC(=O)[C@@H]1C=C2c3cccc4[nH]cc(c34)C[C@H]2N(CCC(F)(F)F)C1", "45.12%"]
]}

Batch of 7 molecules: report 5-HT2A % Act @ Max Dose for each.
1. CCN(CC)C(=O)[C@@H]1C=C2c3cccc4[nH]c(Br)c(c34)C[C@H]2N(CCCF)C1
2. CCCN1C[C@H](C(=O)N2[C@@H](C)C[C@@H]2C)C=C2c3cccc4[nH]c(Br)c(c34)C[C@H]21
3. C=CCN1C[C@H](C(=O)N2[C@@H](C)C[C@@H]2C)C=C2c3cccc4[nH]cc(c34)C[C@H]21
4. CN1C[C@H](C(=O)N2CCCC2)C=C2c3cccc4[nH]cc(c34)C[C@H]21
5. CC[C@@H](C)NC(=O)[C@@H]1C=C2c3cccc4[nH]c(Br)c(c34)C[C@H]2N(C)C1
6. CCN(CC)C(=O)[C@@H]1C=C2c3cccc4[nH]c(Br)c(c34)C[C@H]2N(CCC(F)(F)F)C1
7. CCC[C@@H](C)NC(=O)[C@@H]1C=C2c3cccc4[nH]c(Br)c(c34)C[C@H]2N(C)C1

// result
1. 75.44%
2. 57.01%
3. 81.1%
4. 89.65%
5. 39.32%
6. 8.29%
7. 22.28%

Batch of 7 molecules: report 5-HT2A % Act @ Max Dose for each.
1. CCN(CC)C(=O)[C@@H]1C=C2c3cccc4[nH]c(Br)c(c34)C[C@H]2N(C)C1
2. CN1C[C@H](C(=O)N(CCF)CCF)C=C2c3cccc4[nH]cc(c34)C[C@H]21
3. CCCN1C[C@H](C(=O)N[C@H](C)CC)C=C2c3cccc4[nH]c(Br)c(c34)C[C@H]21
4. C[C@H]1C[C@H](C)N1C(=O)[C@@H]1C=C2c3cccc4[nH]cc(c34)C[C@H]2N(CCCF)C1
5. CCC(CC)NC(=O)[C@@H]1C=C2c3cccc4[nH]c(Br)c(c34)C[C@H]2N(C)C1
6. CCN(CC)C(=O)[C@@H]1C=C2c3cccc4c3C(CN4)C[C@H]2N(C)C1 (mixture of isomers)
7. CCN(CC)C(=O)[C@@H]1C=C2c3cccc4[nH]cc(c34)C[C@H]2N(CCF)C1

// result
1: 67.74%; 2: 93.39%; 3: 69.48%; 4: 83.23%; 5: 29.90%; 6: 76.37%; 7: 95.52%
